Target: Dual specificity tyrosine-phosphorylation-regulated kinase 1A (Homo sapiens)
Test: Inhibition of human DYRK1A transfected in HEK293T cells co-transfected with Renilla plasmid, pGL3-NFAT and NFATc1 assessed as derepression of NFAT-dependent luciferase activity measured after 48 hrs by luciferase assay
measured.parameter: pEC50
Quick note: pEC50 values are minus log10 of concentrations in mol/L.

CCOC(=O)c1cnc2ccc(-c3cc(Cl)c(O)c(Cl)c3)nc2c1N[C@H]1CC[C@H](N)CC1; 8.05
NC(=O)C[C@H]1CC[C@H](Nc2c(CO)cnc3ccc(-c4cc(Cl)c(O)c(Cl)c4)nc23)CC1; 7.13
CCOC(=O)c1cnc2ccc(-c3ccc(C(N)=O)cc3)nc2c1N[C@H]1CC[C@H](CN(C)C)CC1; 5.33
CC(C)CNC(=O)c1cnc2ccc(-c3cc(Cl)c(O)c(Cl)c3)nc2c1N[C@H]1CC[C@H](CN(C)C)CC1; 8.22
CCOC(=O)c1cnc2ccc(-c3ccc(O)cc3)nc2c1N[C@H]1CC[C@H](CN(C)C)CC1; 6.52
CCNC(=O)c1cnc2ccc(-c3cc(Cl)c(O)c(Cl)c3)nc2c1N[C@H]1CC[C@H](CN(C)C)CC1; 8.22
CCOC(=O)c1cnc2ccc(-c3cc(Cl)c(O)c(Cl)c3)nc2c1N[C@H]1CC[C@H](CO)CC1; 7.00
CCOC(=O)c1cnc2ccc(-c3ccnc(N)c3)nc2c1N[C@H]1CC[C@H](CN(C)C)CC1; 7.23

State pEC50 on Dual specificity tyrosine-phosphorylation-regulated kinase 1A (Homo sapiens). Entry: "CN(C)C[C@H]1CC[C@H](Nc2c(C(=O)N(C)C)cnc3ccc(-c4cc(Cl)c(O)c(Cl)c4)nc23)CC1"
6.45
